# test.target: HCV NS3/4A 1b protease D168A (Hepatitis C virus genotype 1b, UniProt Q9WMX2, D1194A)
# Construct: 10× stocks of NS3/4A protease enzyme from Bioenza (Mountain View, Calif.); purchased Bioenza (Mountain View, Calif.)
# test.details: HCV protease FRET assay (IC50_APP), Example 16
# Format: biochemical
# Protocol: The following protocol was used to generate “apparent” IC50 (IC50 APP) values as depicted in Table 6, below. […] Protease reactions were immediately started after enzyme addition with the addition of 45 μL of the FRET substrate and monitored for 60-90 minutes at λex485/λem520 in a Synergy^4 plate reader from BioTek (Winooski, Vt.). […]
Reported IC50 by item:

Solved entries:
{"molecule": "CC(C)(C)OC(=O)N[C@H]1CN(S(=O)(=O)c2ccccc2[N+](=O)[O-])CCC/C=C\\[C@@H]2C[C@@]2(C(=O)NS(=O)(=O)C2CC2)NC(=O)[C@@H]2CC(OC(=O)N3Cc4cccc(F)c4C3)CN2C1=O (some centres unmarked) [Compound I-45]", "IC50": "< 10 nM"}
{"molecule": "C=CC(=O)N(C)C[C@H](NC(=O)OC(C)(C)C)C(=O)N1C[C@H](OC(=O)N2Cc3cccc(F)c3C2)C[C@H]1C(=O)N[C@]1(C(=O)NS(=O)(=O)C2CC2)C[C@H]1C=C [Compound I-11]", "IC50": "10 to 100 nM"}
{"molecule": "C=CC(=O)NCC[C@H](NC(=O)OC(C)(C)C)C(=O)N1C[C@H](OC(=O)N2Cc3cccc(F)c3C2)C[C@H]1C(=O)N[C@]1(C(=O)NS(=O)(=O)C2CC2)C[C@H]1C=C [Compound I-5]", "IC50": "100 to 1000 nM"}
{"molecule": "C=C[C@@H]1C[C@]1(NC(=O)[C@@H]1C[C@@H]2CN1C(=O)[C@H](CC(=O)C=C(C)C)NC(=O)OCC(C)(C)CC/C=C/c1cccc3c1CN(C3)C(=O)O2)C(=O)NS(=O)(=O)C1CC1 [Compound I-79]", "IC50": "10 to 100 nM"}

Shift focus to the following entry.
### Prompt Supply reported IC50 belonging to this molecule: C=CC(=O)N1CC(C(NC(=O)OC2CCCC2)C(=O)N2CC(OC(=O)N3Cc4cccc(F)c4C3)C[C@H]2C(=O)N[C@]2(C(=O)NS(=O)(=O)C3CC3)C[C@H]2C=C)C1 (some centres unmarked) [Compound I-51]
### Response 10 to 100 nM

---

Listing of recorded IC50 by entry.
# Test system: HCV RNA replicon in cell line ET (luc-ubi-neo/ET), human Huh7 hepatoma
# test.details: HCV RNA replicon assay, Example 14 Method A
# Assay type: cell-based
# particulars: Hepatitis C virus, Huh-7; assay of Example 14; 72 hr; read-out: Inhibition, Replicon (IC50)

Sample answers from the record:
{"compound": "C=C[C@@H]1C[C@]1(NC(=O)[C@@H]1C[C@@H](OC(=O)N2Cc3cccc(F)c3C2)CN1C(=O)[C@H](CCC(=O)C=C(C)C)NC(=O)OC(C)(C)C)C(=O)NS(=O)(=O)C1CC1", "observed": "< 10 nM"}
{"compound": "C=CC(=O)NCC(=O)N1C[C@H](OC(=O)N2Cc3cccc(F)c3C2)C[C@H]1C(=O)N[C@]1(C(=O)NS(=O)(=O)C2CC2)C[C@H]1C=C", "observed": "100 to 1000 nM"}
{"compound": "C=C[C@@H]1C[C@]1(NC(=O)[C@@H]1CC(OC(=O)N2Cc3cccc(F)c3C2)CN1C(=O)[C@H](CCC(=O)C(=C)C)NC(=O)OC(C)(C)C)C(=O)NS(=O)(=O)C1CC1 (some centres unmarked)", "observed": "10 to 100 nM"}

### Prompt Indicate the recorded IC50 value for this compound: `C=CC(=O)NC[C@H](NC(=O)OC(C)(C)C)C(=O)N1C[C@H](OC(=O)N2Cc3cccc(F)c3C2)C[C@H]1C(=O)N[C@]1(C(=O)NS(=O)(=O)C2CC2)C[C@H]1C=C`
### Response 10 to 100 nM

### Prompt Find the measured IC50 of `C=C[C@@H]1C[C@]1(NC(=O)[C@@H]1C[C@@H](OC(=O)N2Cc3cccc(F)c3C2)CN1C(=O)[C@@H](NC(=O)OC(C)(C)C)[C@@H](C)OC(=O)/C=C/C)C(=O)NS(=O)(=O)C1CC1` and report it.
### Response 10 to 100 nM

---

Items are presented alongside their recorded IC50.
# test.target: HCV NS3/4A 1b protease R155K (Hepatitis C virus genotype 1b, UniProt Q9WMX2, R1181K)
# Construct: 10× stocks of NS3/4A protease enzyme from Bioenza (Mountain View, Calif.)
# test.details: HCV protease FRET assay (IC50_APP), Example 16
# particulars: reaction started immediately after enzyme addition, read-out: Inhibition (apparent IC50, IC50_APP), HCV R155K

For orientation, consider the following solved cases.
{"molecule": "CCCCC(NC(=O)[C@@H]1C[C@@H](OC(=O)N2Cc3cccc(F)c3C2)CN1C(=O)[C@H](CCC(=O)C=C(C)C)NC(=O)OC(C)(C)C)C(=O)NS(=O)(=O)C1CC1 (stereo partly drawn) [Compound I-44]", "IC50": "1000 to 10000 nM"}
{"molecule": "CC(C)(C)OC(=O)N[C@H]1CN(C(=O)CCl)CCC/C=C\\[C@@H]2C[C@@]2(C(=O)N(C(=O)CCl)S(=O)(=O)C2CC2)NC(=O)[C@@H]2CC(OC(=O)N3Cc4cccc(F)c4C3)CN2C1=O (stereo partly drawn) [Compound I-48]", "IC50": "100 to 1000 nM"}
{"molecule": "CC[C@@H]1C[C@]1(NC(=O)[C@@H]1C[C@@H]2CN1C(=O)[C@H](CCC(=O)C=C(C)C)NC(=O)OCC(C)(C)CC/C=C/c1cccc3c1CN(C3)C(=O)O2)C(=O)NS(=O)(=O)C1CC1 [Compound I-56]", "IC50": "100 to 1000 nM"}
{"molecule": "C=CC(=O)N1CCC/C=C\\[C@@H]2C[C@@]2(C(=O)NS(=O)(=O)C2CC2)NC(=O)[C@@H]2CC(OC(=O)N3Cc4cccc(F)c4C3)CN2C(=O)[C@@H](NC(=O)OC(C)(C)C)C1 (stereo partly drawn) [Compound I-35]", "IC50": "10 to 100 nM"}
{"molecule": "C=C[C@@H]1C[C@]1(NC(=O)[C@@H]1C[C@@H]2CN1C(=O)[C@H](CC(=O)C=C(C)C)NC(=O)OCC(C)(C)CC/C=C/c1cccc3c1CN(C3)C(=O)O2)C(=O)NS(=O)(=O)C1CC1 [Compound I-79]", "IC50": "< 10 nM"}

### Prompt Supply recorded IC50 for C=C[C@@H]1C[C@]1(NC(=O)[C@@H]1C[C@@H](OC(=O)N2Cc3cccc(F)c3C2)CN1C(=O)[C@H](CCC(=O)C=C(C)C)NC(=O)OC(C)(C)C)C(=O)NS(=O)(=O)C1CC1 [Compound I-25] here.
### Response 10 to 100 nM

### Prompt For the molecule C=CC(=O)N(C)C[C@H](NC(=O)OC(C)(C)C)C(=O)N1C[C@H](OC(=O)N2Cc3cccc(F)c3C2)C[C@H]1C(=O)N[C@]1(C(=O)NS(=O)(=O)C2CC2)C[C@H]1C=C [Compound I-11] , report IC50.
### Response 10 to 100 nM

### Prompt For C=C[C@@H]1C[C@]1(NC(=O)[C@@H]1CC(OC(=O)N2Cc3cccc(F)c3C2)CN1C(=O)[C@H](CC(=O)/C(C)=C/C)NC(=O)OC(C)(C)C)C(=O)NS(=O)(=O)C1CC1 (stereo partly drawn) [Compound I-70] , write its IC50.
### Response 100 to 1000 nM

### Prompt Respond only with IC50 recorded for C=CC(=O)NC[C@@H]1NC(=O)OCC(C)(C)CC/C=C/c2cccc3c2CN(C3)C(=O)O[C@@H]2C[C@@H](C(=O)N[C@]3(C(=O)NS(=O)(=O)C4CC4)C[C@H]3C=C)N(C2)C1=O [Compound I-40]
### Response < 10 nM

---

Each item that follows carries a reported IC50.
# test.target: HCV NS3/4A 1b protease wild type (Hepatitis C virus genotype 1b, UniProt Q9WMX2)
# Construct: 10× stocks of NS3/4A protease enzyme from Bioenza (Mountain View, Calif.); purchased Bioenza (Mountain View, Calif.)
# test.details: HCV protease FRET assay (IC50_APP), Example 16
# Format: biochemical
# Protocol: The following protocol was used to generate “apparent” IC50 (IC50 APP) values as depicted in Table 6, below. […] Protease reactions were immediately started after enzyme addition with the addition of 45 μL of the FRET substrate and monitored for 60-90 minutes at λex485/λem520 in a Synergy^4 plate reader from BioTek (Winooski, Vt.). […]

{"compound": "C=CC(=O)N1C/C=C\\[C@@H]2C[C@@]2(C(=O)NS(=O)(=O)C2CC2)NC(=O)[C@@H]2CC(OC(=O)N3Cc4cccc(F)c4C3)CN2C(=O)[C@@H](NC(=O)OC(C)(C)C)CCC1 (stereo partly drawn) [Compound I-37]", "value.kind": "IC50", "observed": "< 10 nM"}
{"compound": "C=CC(=O)N(C)C[C@H](NC(=O)OC(C)(C)C)C(=O)N1C[C@H](OC(=O)N2Cc3cccc(F)c3C2)C[C@H]1C(=O)N[C@]1(C(=O)NS(=O)(=O)C2CC2)C[C@H]1C=C [Compound I-11]", "value.kind": "IC50", "observed": "< 10 nM"}

Let's switch to this compound now.
### Prompt // Input: C=CC(=O)O[C@H](C)[C@H](NC(=O)OC(C)(C)C)C(=O)N1C[C@H](OC(=O)N2Cc3cccc(F)c3C2)C[C@H]1C(=O)N[C@]1(C(=O)NS(=O)(=O)C2CC2)C[C@H]1C=C [Compound I-24] . Output its IC50 only.
### Response < 10 nM
